assay: mouse pharmacokinetic study; format: in vivo; conditions: male, Balb/C, whole blood, ip, 50 mg/kg
QUANTITY MEASURED: Tmax (h)
Hi! Could you send only the number? It should be in h, unit omitted.

I would be grateful if you could share the reported Tmax for `COC1=C(OC)[C@H](O)[C@H](C/C=C(\C)CC/C=C(\C)CCC=C(C)C)[C@@H](C)C1=O` .
4

###

test: mouse pharmacokinetic study; format: in vivo; settings: male, Balb/C, whole blood, ip, 50 mg/kg
QUANTITY MEASURED: Cmax (nM)
Give just the number in nM; leave the unit off.

Requested field: Cmax. Item: `COC1=C(OC)[C@H](O)[C@H](C/C=C(\C)CC/C=C(\C)CCC=C(C)C)[C@@H](C)C1=O`
457
